Tgt: PKA-RIα-GFP (UniProt P10644)
Sequence (P10644 whole entry): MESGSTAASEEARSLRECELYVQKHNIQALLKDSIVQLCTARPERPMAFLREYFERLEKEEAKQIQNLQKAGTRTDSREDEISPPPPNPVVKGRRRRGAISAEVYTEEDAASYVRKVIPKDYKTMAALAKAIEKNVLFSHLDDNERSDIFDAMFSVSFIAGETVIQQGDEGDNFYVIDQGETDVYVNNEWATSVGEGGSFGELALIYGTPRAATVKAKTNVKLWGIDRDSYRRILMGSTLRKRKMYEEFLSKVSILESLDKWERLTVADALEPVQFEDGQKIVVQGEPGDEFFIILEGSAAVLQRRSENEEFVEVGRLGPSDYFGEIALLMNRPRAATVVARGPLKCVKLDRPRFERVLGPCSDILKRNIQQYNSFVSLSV
Experiment Notes: SPR
pKd: −log10 of the molar value. Ends that are not written are not given here.
Observable: pKd

a. Ac-VQGNTDEAQEELAWKIAKMIVSDIMQQ [Ac-27mer Ile]
b. Ac-VQGNTDEAQEELAWKIAKMIVSDVMQQ-NH2 [Ac-27mer Val]
Challenge: Which has the higher pKd, a or b ? // respond with label for picked entry
Response given: b
